src = PubChem BioAssay

Assay remarks: binders of probe aFGF2 on microarray, primary screen, stem cell growth factor project, biochemical, small-molecule microarray, fluorescence 635/667 (AID 1067);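 also: measures binding of biotinylated aFGF2 protein to printed compounds on slides; z-score merges feature fluorescence and signal-to-noise across triplicate slides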
Condition context: higher = more signal
Decision: composite z-score compared against -0.06; not below it gives met, below it gives not met.

Please tell me: is the molecule `CO[C@H]1COC(=O)[C@H](C)NC(=O)CC=C[C@@H](C)[C@H](OC)COC(=O)[C@@H](OCc2ccccc2)C=C[C@@H]1C` at or over -0.06 in terms of composite z-score?
not met

Can you handle `C[C@H](ON=C1[C@H]2CCn3c(=O)n(-c4ccccc4)c(=O)n3[C@H]2[C@H](O)[C@@H]2O[C@H]12)c1cn([C@H](CO)Cc2ccccc2)nn1` next?
met

* * *

Assay remarks: FRG1 promoter luciferase signal modulators, primary screen, FRG1 inhibition for FSHD, cell-based, C2C12 myotubes, firefly/Renilla luciferase, luminescence (AID 1084)
Condition context: higher = more signal, called active from +8 up or from −8 down
Note to self: values exactly at -0.2 are condition met. So z-score at or above -0.2 is condition met, below is condition not met.

O=C(NN=C1C[C@@H](O)[C@@H](O)[C@@H]2[C@@H]3C(=O)N(C[C@@H]4CCCO4)C(=O)[C@@H]3CC[C@@H]12)OCc1ccccc1 ... condition not met

# bool: z-score of `CC(C)(C)N1C(=O)[C@H]2[C@H]3[C@H](O)[C@H](O)CC(=O)[C@H]3CC[C@H]2C1=O` >= -0.2
condition met

Entry to check: O=C1CCCC=C1C(O)CCCCBr (configuration not stated)
condition met

Same for `O=C1C[C@@H](O)[C@@H](O)[C@@H]2[C@@H]3C(=O)N(C[C@@H]4CCCO4)C(=O)[C@@H]3CC[C@@H]12`
condition not met

Could you do the same for `CO[C@@H]1COC(=O)CC=C[C@@H](C)[C@@H]2C=C[C@H](O)[C@@H](COC(=O)CC=C[C@H]1C)O2` , please?
condition not met

Also need `CCOC(=O)CCN1C(=O)[C@H]2[C@H]3[C@H](O)[C@H](O)CC(=NOCc4ccccc4)[C@H]3CC[C@H]2C1=O` , thanks.
condition met

Try `COc1cccc([C@H]2Oc3ccc(OC)cc3C(=NO[C@@H]3O[C@H](COC(C)=O)[C@@H](OC(C)=O)[C@H](OC(C)=O)[C@H]3OC(C)=O)[C@@H]2O)c1` next.
condition met

One more compound: `COCOc1ccc(Br)cc1C(=O)[C@@H]1O[C@H]1c1cccc(OC)c1`
condition met

Here is the next compound: `CO[C@H]1COC(=O)[C@H](C)NC(=O)CC=C[C@@H](C)[C@H](OC)COC(=O)[C@@H](OCc2ccccc2)C=C[C@@H]1C`
condition met

* * *

System: Sonic hedgehog protein (Shh)
Assay remarks: small-molecule binders of Shh protein, primary screen, biochemical, small-molecule microarray, 635/667 nm fluorescence (AID 1151);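 also: Shh protein binding to compounds spotted on small-molecule microarray slides; score combines spot fluorescence intensity with signal-to-noise across triplicate slides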
Condition context: small-molecule microarray binding, 635 nm fluorescence; higher = more signal
# reported composite z-score; entries follow
// return just the number, without any unit appended

CC(=O)OC[C@H]1O[C@H](CC=NO[C@H](C)c2cn([C@H](CO)Cc3ccccc3)nn2)C=C[C@@H]1OC(C)=O ... 0.805
COC(=O)[C@@H]1CC[C@@H](C)[C@H](c2ccc(Br)cc2)N1 ... -0.139
COc1ccc(O[C@H]2C=C[C@@H](c3ccccc3)O[C@@H]2COC(=O)CCC(C)=NOC[C@@H](O)[C@H]2O[C@@H]3OC(C)(C)O[C@@H]3[C@H]2O)cc1 ... 1.14
CON=Cc1ccc(C(=O)N2[C@H](c3ccc(C)cc3)[C@@H](C)CC[C@H]2C(=O)OC)cc1 ... 0.441
COC(=O)CC=C[C@H](C)[C@@H](OCc1cccc(Br)c1)[C@@H](C)[C@H](OC)C1CCCCC1 ... 0.341
O=C1CCCC=C1C(O)CCCCBr (centres undefined) ... 0.333

API: value(readout=composite z-score, system=Sonic hedgehog protein (Shh)) for record `CO[C@H]1COC(=O)[C@@H](C)COC(=O)[C@@H](OCc2ccccc2)C=C[C@@H]1C`
0.214

Same for COCCNC(=O)OCC1CCCC2(CC(OC(=O)NCc3ccc4c(c3)OCO4)CC(CCC(=O)N[C@@H](C)C(=O)OC)O2)O1 (some centres undefined)
1.5

# repeat for `C[n+]1ccc(-c2ccc(CO)cc2)cc1`
2.14

* * *

System: NADPH oxidase 5 (Homo sapiens) (UniProt Q96PH1)
Sequence (Q96PH1 whole entry, looked up): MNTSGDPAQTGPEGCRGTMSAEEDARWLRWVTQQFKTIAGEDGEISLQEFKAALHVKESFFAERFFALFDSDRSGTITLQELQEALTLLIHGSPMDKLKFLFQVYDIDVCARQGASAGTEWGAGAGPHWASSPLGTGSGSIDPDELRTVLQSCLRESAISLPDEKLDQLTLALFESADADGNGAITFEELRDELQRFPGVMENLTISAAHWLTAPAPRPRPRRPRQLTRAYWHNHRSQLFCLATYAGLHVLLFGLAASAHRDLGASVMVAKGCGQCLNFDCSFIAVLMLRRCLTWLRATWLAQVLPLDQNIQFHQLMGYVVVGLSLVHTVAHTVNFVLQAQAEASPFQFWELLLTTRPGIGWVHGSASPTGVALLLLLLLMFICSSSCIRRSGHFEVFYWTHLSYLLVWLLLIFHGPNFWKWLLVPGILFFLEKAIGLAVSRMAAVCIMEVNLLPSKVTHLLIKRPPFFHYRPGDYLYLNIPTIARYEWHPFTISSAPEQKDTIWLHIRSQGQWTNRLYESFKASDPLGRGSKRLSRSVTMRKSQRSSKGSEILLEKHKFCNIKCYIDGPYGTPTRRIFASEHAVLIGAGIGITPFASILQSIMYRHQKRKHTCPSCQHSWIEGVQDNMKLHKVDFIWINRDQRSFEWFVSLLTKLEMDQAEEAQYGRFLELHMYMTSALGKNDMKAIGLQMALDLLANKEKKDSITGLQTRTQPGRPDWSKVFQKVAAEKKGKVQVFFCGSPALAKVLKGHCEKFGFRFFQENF
Assay remarks: NOX5-dependent H2O2 signal modulators, primary screen, NOX inhibitor project, cell-based, HEK293-NOX5, Amplex Red fluorescence (AID 1161)
Condition context: HEK293-NOX5, ionomycin, 45 min, higher = more signal
Known z-score of a selection of compounds
Respond with the number and no other words.

CCOC(=O)[C@H](Cc1ccccc1)NC(=O)OC1CC(CCC2CC(CC)=NO2)OC2(CCCC(COC(=O)NCCC(C)C)O2)C1 (stereo partly drawn) ... 1.04

Now look at this entry.
Which z-score is listed for `COC(=O)CC=C[C@@H](C)[C@H](OCc1cccc(-c2ccccc2)c1)C1CCCCC1` ?
-0.471

* * *

System: Focal adhesion kinase 1 (Homo sapiens) (UniProt Q05397)
Sequence (Q05397 whole entry, looked up): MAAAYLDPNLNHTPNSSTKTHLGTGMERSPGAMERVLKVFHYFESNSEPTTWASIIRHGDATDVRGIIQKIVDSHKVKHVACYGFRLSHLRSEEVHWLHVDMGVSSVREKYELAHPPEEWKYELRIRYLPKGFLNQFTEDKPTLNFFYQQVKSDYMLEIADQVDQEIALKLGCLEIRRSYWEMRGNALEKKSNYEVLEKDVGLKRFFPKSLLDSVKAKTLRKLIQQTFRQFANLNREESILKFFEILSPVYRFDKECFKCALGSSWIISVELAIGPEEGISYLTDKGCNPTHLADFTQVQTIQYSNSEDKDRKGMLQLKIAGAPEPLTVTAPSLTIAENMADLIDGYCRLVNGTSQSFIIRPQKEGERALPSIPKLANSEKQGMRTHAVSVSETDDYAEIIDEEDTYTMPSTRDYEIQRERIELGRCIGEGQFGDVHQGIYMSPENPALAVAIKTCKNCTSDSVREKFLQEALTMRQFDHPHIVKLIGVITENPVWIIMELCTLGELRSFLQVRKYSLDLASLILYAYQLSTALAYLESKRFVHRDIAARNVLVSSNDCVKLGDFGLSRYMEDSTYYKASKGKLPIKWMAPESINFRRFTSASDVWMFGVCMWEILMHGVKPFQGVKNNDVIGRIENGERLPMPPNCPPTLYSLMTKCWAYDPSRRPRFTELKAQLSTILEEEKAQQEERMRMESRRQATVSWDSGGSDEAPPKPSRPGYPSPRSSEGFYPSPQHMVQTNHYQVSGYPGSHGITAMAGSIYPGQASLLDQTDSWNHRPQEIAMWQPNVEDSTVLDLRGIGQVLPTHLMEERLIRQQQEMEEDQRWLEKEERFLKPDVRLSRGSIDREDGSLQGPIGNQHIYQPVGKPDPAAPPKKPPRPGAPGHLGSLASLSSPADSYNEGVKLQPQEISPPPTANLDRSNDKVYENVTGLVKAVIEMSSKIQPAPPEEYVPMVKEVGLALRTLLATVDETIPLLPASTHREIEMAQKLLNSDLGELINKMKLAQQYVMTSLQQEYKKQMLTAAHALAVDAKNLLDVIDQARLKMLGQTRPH
Assay remarks: small-molecule microarray binders of FAK, primary screen, biochemical, 635/667 nm fluorescence, BSA, DTT (AID 1130);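 also: composite of spot emission at 667 nm and signal to noise over triplicate slides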
Condition context: PTK2 binding, 635 nm fluorescence, higher = more signal
Reported property: composite z-score
Reply briefly: the number, and no unit.

Record excerpt, results attached:
C[C@@H]1CC[C@H]2C(=O)O[C@@H](COc3ccc(C(C)(C)C)cc3)CN2[C@@H]1c1ccc(Br)cc1 ... 0.225
COC(=O)[C@@H]1CC[C@H](C)[C@@H](c2ccc(C)cc2)N1C(=O)c1ccc(C=NOCC[C@@H]2C=C[C@H](OC(C)=O)[C@@H](COC(C)=O)O2)cc1 ... -0.125
CCOC(=O)[C@H](CC(C)C)NC(=O)CCC1CC(OC(=O)NCCc2ccc(F)cc2)CC2(CCCC(COC(=O)NCCc3ccccc3OC)O2)O1 (some centres undefined) ... 0.0376

Proceed to the following item.
Give the measured composite z-score of `C[C@@H]1CC[C@H]2C(=O)O[C@@H](Cc3ccccc3)CN2[C@H]1c1ccc(Br)cc1` .
0.217

* * *

System: Fibroblast growth factor 10 (Homo sapiens)
Assay remarks: FGF10 binders on small-molecule microarrays, primary screen, biochemical, small-molecule microarray, 635 nm fluorescence (AID 1102)
Condition context: FGF10 binding, fluorescence 635 nm, higher = more signal
Tag: Met if measured composite z-score is not below 0.4, Not met if it is.

Worked set:
CCOC(=O)[C@H](CC(C)C)NC(=O)CCC1CC(OC(=O)NCc2cccc3ccccc23)CC2(CCCC(COC(=O)NCCOC)O2)O1 (some centres undefined) ... Met
CSCC[C@@H]1NC(=O)CC=C[C@@H](C)COC(=O)[C@@H](C)COC1=O ... Not met
COc1ccc(O[C@@H]2[C@H](O)CO[C@@H]2C=Cc2ccccc2)cc1 ... Not met
COC(=O)[C@H](C)NC(=O)CCC1CC(OC(=O)NCc2ccc3c(c2)OCO3)CC2(CCCC(COC(=O)NCC3CCCCC3)O2)O1 (some centres undefined) ... Met
CO[C@@H]1COC(=O)CC=C[C@H](C)[C@H](OC)COC(=O)[C@H](C)NC(=O)CC=C[C@H]1C ... Met

Has `COc1ccc(O[C@H]2C=C[C@@H](c3ccccc3)O[C@@H]2CON=CC[C@@H]2C=C[C@H](OC(C)=O)[C@@H](COC(C)=O)O2)cc1` a recorded composite z-score greater than or equal to 0.4?
Not met

// next record `CCN1C(=O)[C@H]2[C@H]3[C@H](O)[C@H](O)CC(=NO[C@@H](C)c4cn([C@H](CO)Cc5ccccc5)nn4)[C@@H]3CC[C@H]2C1=O`
Met

And for CCOC(=O)[C@H](CC(C)C)NC(=O)CCC1CC(OC(=O)NCc2cccc3ccccc23)CC2(CCCC(COC(=O)NCc3ccncc3)O2)O1 (some centres undefined) ?
Met

* * *

Tested on: XIP peptide (Xip251-270) binding
Assay remarks: small-molecule binders of XIP peptide, primary screen, biochemical, small-molecule microarray, fluorescence 635/667 nm, 0.1 µg/mL protein (AID 1182)
Condition context: fluorescent protein binding, 635 nm, higher = more signal, called active from +8 up or from −8 down
Calls of active or inactive are those of the source.
Each record here notes measured composite z-score.

Known composite z-score results, listed for orientation:
CCOC(=O)[C@H](Cc1ccccc1)NC(=O)CCC1CC(OC(=O)NCCc2ccc(F)cc2)CC2(CCCC(COC(=O)NCCCN3CCCC3=O)O2)O1 (stereo partly drawn) ... 0.414 (inactive)
CC(C)=CCCC(C)=CCON=C1C[C@@H](O)[C@@H](O)[C@@H]2[C@@H]3C(=O)N(c4cccc(Oc5ccccc5)c4)C(=O)[C@@H]3CC[C@@H]12 ... 0.188 (inactive)

Which composite z-score value belongs to `O=C1C[C@@H](O)[C@@H](O)[C@@H]2[C@@H]3C(=O)N(C[C@@H]4CCCO4)C(=O)[C@@H]3CC[C@H]12` ?
0.195 (inactive)
